The measured values listed here are drawn from paper PMC11463018.

# Subject of test: HDAC4 (Homo sapiens, UniProt P56524)
# Sequence (P56524 whole entry): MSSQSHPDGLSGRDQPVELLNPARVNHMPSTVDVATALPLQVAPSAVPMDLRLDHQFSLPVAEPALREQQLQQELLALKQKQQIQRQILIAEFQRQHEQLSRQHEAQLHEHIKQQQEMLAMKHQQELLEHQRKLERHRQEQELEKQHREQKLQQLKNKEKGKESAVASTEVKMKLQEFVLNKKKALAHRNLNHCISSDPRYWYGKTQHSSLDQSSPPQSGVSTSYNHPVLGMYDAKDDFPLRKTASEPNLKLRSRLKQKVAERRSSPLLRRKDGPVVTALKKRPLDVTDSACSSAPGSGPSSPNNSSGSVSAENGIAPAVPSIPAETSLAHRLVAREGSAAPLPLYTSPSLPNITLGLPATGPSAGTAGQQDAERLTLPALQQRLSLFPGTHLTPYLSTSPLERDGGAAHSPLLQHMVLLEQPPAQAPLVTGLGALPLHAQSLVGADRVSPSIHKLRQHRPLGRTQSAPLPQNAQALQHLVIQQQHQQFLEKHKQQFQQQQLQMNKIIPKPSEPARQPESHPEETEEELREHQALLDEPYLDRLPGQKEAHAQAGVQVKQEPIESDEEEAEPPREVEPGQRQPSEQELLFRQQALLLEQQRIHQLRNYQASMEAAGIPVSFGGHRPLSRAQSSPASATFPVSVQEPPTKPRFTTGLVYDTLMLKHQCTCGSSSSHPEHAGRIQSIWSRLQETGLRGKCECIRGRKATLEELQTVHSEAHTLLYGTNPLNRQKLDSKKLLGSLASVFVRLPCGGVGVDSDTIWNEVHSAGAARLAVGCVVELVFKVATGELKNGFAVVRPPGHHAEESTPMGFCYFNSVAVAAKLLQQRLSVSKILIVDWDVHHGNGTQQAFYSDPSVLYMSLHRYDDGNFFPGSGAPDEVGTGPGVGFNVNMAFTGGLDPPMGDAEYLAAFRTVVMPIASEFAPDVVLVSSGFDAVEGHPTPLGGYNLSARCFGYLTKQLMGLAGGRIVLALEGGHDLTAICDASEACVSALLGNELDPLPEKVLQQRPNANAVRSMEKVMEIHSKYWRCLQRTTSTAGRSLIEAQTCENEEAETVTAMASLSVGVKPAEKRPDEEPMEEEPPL
pIC50: −log10 of the molar value.
Observable: pIC50

pIC50 for HDAC4 (Homo sapiens, UniProt P56524) with input O=C(NO)c1ccc(CNc2nc3cccc(-c4ccc5c(c4)OCO5)n3n2)cc1 equals < 4.30

###

Answer each item with its documented IC50.
# unit: nM | format: bare number

IC50 for JAK1 (Homo sapiens) with input O=C(NO)c1ccc(CNc2nc3cccc(-c4ccccc4)n3n2)cc1 [Compound 16a] equals 320

IC50 for JAK1 (Homo sapiens) with input O=C(NO)c1ccc(CNc2nc3cccc(-c4cccc(Cl)c4)n3n2)cc1 [Compound 16h] equals 365

IC50 for JAK1 (Homo sapiens) with input O=C(NO)c1ccc(CNc2nc3cccc(-c4cc(C(F)(F)F)cc(C(F)(F)F)c4)n3n2)cc1 [Compound 16m] equals 685

IC50 for JAK1 (Homo sapiens) with input Cc1ccc(-c2cccc3nc(NCc4ccc(C(=O)NO)cc4)nn23)cc1 [Compound 16e] equals 304

IC50 for JAK1 (Homo sapiens) with input O=C(NO)c1ccc(CNc2nc3cccc(-c4ccc5c(c4)OCO5)n3n2)cc1 equals 165

IC50 for JAK1 (Homo sapiens) with input COc1ccccc1-c1cccc2nc(NCc3ccc(C(=O)NO)cc3)nn12 [Compound 16d] equals 750

IC50 for JAK1 (Homo sapiens) with input O=C(NO)c1ccc(CNc2nc3cccc(-c4ccc(F)cc4)n3n2)cc1 [Compound 16j] equals 295

IC50 for JAK1 (Homo sapiens) with input Cc1ccccc1-c1cccc2nc(NCc3ccc(C(=O)NO)cc3)nn12 [Compound 16g] equals 550
